Tested on: Ruminococcus gnavus DSM 108212
experimentNotes: fold change of Tryptamine concentration vs plate DMSO controls (fold change (ratio)); higher = more amine produced
conditionSummary: 10 µM; incubation time: 27 h, anaerobic, 37 °C
Recorded fold change of Tryptamine concentration for the following compounds

Illustrative cases are given below, each with its answer.
{"compound": "C[C@@H](O)[C@H]1C(=O)N2C(C(=O)O)=C(S[C@@H]3CN[C@H](C(=O)N(C)C)C3)[C@H](C)[C@H]12", "propertyMeasured": "fold change of Tryptamine concentration", "reported": 0.217}
{"compound": "COc1c(N2CCNC(C)C2)c(F)cc2c(=O)c(C(=O)O)cn(C3CC3)c12 (stereo not drawn)", "propertyMeasured": "fold change of Tryptamine concentration", "reported": 1.85}
{"compound": "CN(C)[C@@H]1C(=O)C(C(N)=O)=C(O)[C@@]2(O)C(=O)C3=C(O)c4c(O)cccc4[C@@](C)(O)[C@H]3[C@H](O)[C@@H]12 [Oxytetracycline dihydrate]", "propertyMeasured": "fold change of Tryptamine concentration", "reported": 2.8}

# input compound: CCN1CCN(C(=O)N[C@@H](C(=O)N[C@@H]2C(=O)N3C(C(=O)O)=C(CSc4nnnn4C)CS[C@H]23)c2ccc(O)cc2)C(=O)C1=O [Cefoperazone dihydrate] ; wanted: its fold change of Tryptamine concentration
0.14

# input compound: CCn1cc(C(=O)O)c(=O)c2cc(F)c(N3CCNCC3)nc21 ; wanted: its fold change of Tryptamine concentration
1.3

###

System: Ruminococcus gnavus DSM 108212
experimentNotes: growth (OD595) fold change vs plate DMSO controls (fold change (ratio)); higher = more growth
conditionSummary: 5 µM; incubation time: 27 h, anaerobic, 37 °C
propertyMeasured: growth
Just the number, please, no unit attached.

{"molecule": "C[C@@H](O)[C@H]1C(=O)N2C(C(=O)O)=C(S[C@@H]3CN[C@H](C(=O)N(C)C)C3)[C@H](C)[C@H]12 [Meropenem]", "reported": 1.88}
{"molecule": "CCn1cc(C(=O)O)c(=O)c2cc(F)c(N3CCNCC3)nc21 [Enoxacin]", "reported": 0.638}
{"molecule": "CS(=O)(=O)c1ccc([C@@H](O)[C@@H](CO)NC(=O)C(Cl)Cl)cc1 [Thiamphenicol]", "reported": 0.686}

Now, please, on to the next molecule.
# input molecule: CCN1CCN(C(=O)N[C@@H](C(=O)N[C@@H]2C(=O)N3C(C(=O)O)=C(CSc4nnnn4C)CS[C@H]23)c2ccc(O)cc2)C(=O)C1=O [Cefoperazone dihydrate] ; wanted: its growth
0.627

###

Recorded fold change of Histamine concentration for the following compounds
Tested on: Klebsiella aerogenes DSM 30053
experimentNotes: fold change of Histamine concentration vs plate DMSO controls (fold change (ratio)); higher = more amine produced
conditionSummary: 20 µM; incubation time: 27 h, anaerobic, 37 °C
Just the number, please, no unit attached.

Illustrative cases are given below, each with its answer.
{"compound": "CCn1cc(C(=O)O)c(=O)c2cc(F)c(N3CCNCC3)nc21 [Enoxacin]", "fold change of Histamine concentration": 0.329}
{"compound": "COc1c(N2CCNC(C)C2)c(F)cc2c(=O)c(C(=O)O)cn(C3CC3)c12 (centres undefined) [Gatifloxacin]", "fold change of Histamine concentration": 0.4}
{"compound": "CN1CCN(c2c(F)cc3c(=O)c(C(=O)O)cn4c3c2SCC4)CC1 [Rufloxacin]", "fold change of Histamine concentration": 0.22}

Now, please, on to the next compound.
# input compound: C[C@@H](O)[C@H]1C(=O)N2C(C(=O)O)=C(S[C@@H]3CN[C@H](C(=O)N(C)C)C3)[C@H](C)[C@H]12 [Meropenem] ; wanted: its fold change of Histamine concentration
0.227

###

Test system: Klebsiella aerogenes DSM 30053
experimentNotes: fold change of Cadaverine concentration vs plate DMSO controls (fold change (ratio)); higher = more amine produced
conditionSummary: 0.6125 µM; incubation time: 27 h, anaerobic, 37 °C
propertyMeasured: fold change of Cadaverine concentration
Just the number, please, no unit attached.

Illustrative cases are given below, each with its answer.
{"compound": "CCn1cc(C(=O)O)c(=O)c2cc(F)c(N3CCNCC3)nc21 [Enoxacin]", "fold change of Cadaverine concentration": 0.977}
{"compound": "CN1CCN(c2c(F)cc3c(=O)c(C(=O)O)cn4c3c2SCC4)CC1 [Rufloxacin]", "fold change of Cadaverine concentration": 0.967}
{"compound": "COc1c(N2CCNC(C)C2)c(F)cc2c(=O)c(C(=O)O)cn(C3CC3)c12 (centres undefined) [Gatifloxacin]", "fold change of Cadaverine concentration": 0.983}

Now, please, on to the next compound.
# input compound: C[C@@H](O)[C@H]1C(=O)N2C(C(=O)O)=C(S[C@@H]3CN[C@H](C(=O)N(C)C)C3)[C@H](C)[C@H]12 [Meropenem] ; wanted: its fold change of Cadaverine concentration
0.982

###

Recorded fold change of Putrescine concentration for the following compounds
Tested on: Klebsiella aerogenes DSM 30053
experimentNotes: fold change of Putrescine concentration vs plate DMSO controls (fold change (ratio)); higher = more amine produced
conditionSummary: 1.25 µM; incubation time: 27 h, anaerobic, 37 °C
Just the number, please, no unit attached.

Illustrative cases are given below, each with its answer.
{"compound": "CCn1cc(C(=O)O)c(=O)c2cc(F)c(N3CCNCC3)nc21", "reported": 1.06}
{"compound": "CN1CCN(c2c(F)cc3c(=O)c(C(=O)O)cn4c3c2SCC4)CC1", "reported": 0.992}
{"compound": "C[C@@H](O)[C@H]1C(=O)N2C(C(=O)O)=C(S[C@@H]3CN[C@H](C(=O)N(C)C)C3)[C@H](C)[C@H]12", "reported": 1.06}

Now, please, on to the next compound.
Item: COc1c(N2CCNC(C)C2)c(F)cc2c(=O)c(C(=O)O)cn(C3CC3)c12 (centres undefined) Test system: Klebsiella aerogenes DSM 30053 Read-out: fold change of Putrescine concentration Value: ?
1.2

###

System: Ruminococcus gnavus DSM 108212
experimentNotes: growth (OD595) fold change vs plate DMSO controls (fold change (ratio)); higher = more growth
conditionSummary: 2.5 µM; incubation time: 27 h, anaerobic, 37 °C
Structures can show the parent of a compound that is named as a salt.
propertyMeasured: growth

Illustrative cases are given below, each with its answer.
{"compound": "CO/N=C(\\C(=O)N[C@@H]1C(=O)N2C(C(=O)[O-])=C(C[n+]3ccn4ncccc43)CS[C@H]12)c1nsc(N)n1 [Cefozopran hydrochloride]", "propertyMeasured": "growth", "reported": 1.03}
{"compound": "CCn1cc(C(=O)O)c(=O)c2cc(F)c(N3CCNCC3)nc21", "propertyMeasured": "growth", "reported": 0.725}
{"compound": "COc1c(N2CCNC(C)C2)c(F)cc2c(=O)c(C(=O)O)cn(C3CC3)c12 (stereo not drawn)", "propertyMeasured": "growth", "reported": 0.553}

# input compound: CN1CCN(c2c(F)cc3c(=O)c(C(=O)O)cn4c3c2SCC4)CC1 ; wanted: its growth
0.91

# input compound: CS(=O)(=O)c1ccc([C@@H](O)[C@@H](CO)NC(=O)C(Cl)Cl)cc1 ; wanted: its growth
0.797

# input compound: C[C@@H](O)[C@H]1C(=O)N2C(C(=O)O)=C(S[C@@H]3CN[C@H](C(=O)N(C)C)C3)[C@H](C)[C@H]12 ; wanted: its growth
1.63

# input compound: CN(C)[C@@H]1C(=O)C(C(N)=O)=C(O)[C@@]2(O)C(=O)C3=C(O)c4c(O)cccc4[C@@](C)(O)[C@H]3[C@H](O)[C@@H]12 [Oxytetracycline dihydrate] ; wanted: its growth
0.68

# input compound: CCN1CCN(C(=O)N[C@@H](C(=O)N[C@@H]2C(=O)N3C(C(=O)O)=C(CSc4nnnn4C)CS[C@H]23)c2ccc(O)cc2)C(=O)C1=O [Cefoperazone dihydrate] ; wanted: its growth
0.937

###

Test system: Klebsiella aerogenes DSM 30053
experimentNotes: growth (OD595) fold change vs plate DMSO controls (fold change (ratio)); higher = more growth
conditionSummary: 20 µM; incubation time: 27 h, anaerobic, 37 °C
propertyMeasured: growth
Just the number, please, no unit attached.

{"molecule": "COc1c(N2CCNC(C)C2)c(F)cc2c(=O)c(C(=O)O)cn(C3CC3)c12 (centres undefined) [Gatifloxacin]", "reported": 0.242}
{"molecule": "CN1CCN(c2c(F)cc3c(=O)c(C(=O)O)cn4c3c2SCC4)CC1 [Rufloxacin]", "reported": 0.37}
{"molecule": "CCn1cc(C(=O)O)c(=O)c2cc(F)c(N3CCNCC3)nc21 [Enoxacin]", "reported": 0.328}

# input molecule: C[C@@H](O)[C@H]1C(=O)N2C(C(=O)O)=C(S[C@@H]3CN[C@H](C(=O)N(C)C)C3)[C@H](C)[C@H]12 [Meropenem] ; wanted: its growth
0.363
